molecular target: T1, LBD fragment of human Nur77 (residues 351–598) (human, UniProt P22736 351-598); assay: MST; settings: both partners purified
T1 construct: Labelled with a fluorescent dye for MST; amine-coupled to the chip for SPR; also called Nur77 LBD; Nur77-LBD; source: E. coli BL21(DE3), purified (Ni-NTA, Superdex 200 gel filtration)
T1 sequence (P22736 351-598): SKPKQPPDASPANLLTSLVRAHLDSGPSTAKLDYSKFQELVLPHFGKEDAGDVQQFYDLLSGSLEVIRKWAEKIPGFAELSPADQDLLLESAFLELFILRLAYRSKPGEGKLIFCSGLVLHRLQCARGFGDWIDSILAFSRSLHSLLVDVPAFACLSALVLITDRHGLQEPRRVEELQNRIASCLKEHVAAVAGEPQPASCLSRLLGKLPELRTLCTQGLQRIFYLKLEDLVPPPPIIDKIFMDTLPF
Bridges are numbered along the chain shown (N, C = ends). Where no end group is shown, it is not given here. [ ]: non-standard residue; d: D form. S5 = C=CCCC[C@](C)(N)C(=O)O
value-kind: Kd (nM)
Value expressed in nM; do not type the unit.

binder | recorded-number
CEGCKGFFRRTIRYRKKRRQRRR-NH2 (cysteine pairing not given here) [T-CY14 (CY14 with the TAT sequence conjugated to its C-terminus)] | 4180

Here is the next item to consider.
According to the records, this binder H-CEGCKGF[S5]RRT[S5]RYYGRKKRRQRRR-NH2 (staple 8-12; cysteine pairing not given here) [ST-CY14 (stapled T-CY14)] displays Kd of 668

Just for reference, paper PMC11234460 is where these values come from.
